Each recorded value in this set is attributed to patent US20250345458A1.

Osmolality overview
assay_remarks: Osmolality of API formulations (micro osmometer, triplicate)
Format: physicochemical
reported_conditions: API FB CapAcid formulation, 70 mg/mL API FB, 1.1 equivalents CapAcid (H^+ equivalents), after titration
Answer in mOsmol/kg, number only, no unit symbol.

# molecule, Osmolality / mOsmol/kg
data = [
    ("NC1C2CC3CC(C2)CC1C3 (stereo not drawn)", 435.7),
    ("CC(N)C12CC3CC(CC(C3)C1)C2 (stereo not drawn)", 301.7),
    ("CC[C@H](C)C[C@H](C)CCCCCCCCC(=O)N[C@H]1C[C@@H](O)[C@@H](NCCN)NC(=O)[C@@H]2[C@@H](O)CCN2C(=O)[C@H]([C@H](O)CCN)NC(=O)[C@H]([C@H](O)[C@@H](O)c2ccc(O)cc2)NC(=O)[C@@H]2C[C@@H](O)CN2C(=O)[C@H]([C@@H](C)O)NC1=O", 59),
]

Query: Give reported Osmolality value for NC12CC3CC(CC(C3)C1)C2
Result: 411.6

Query: Give reported Osmolality value for Nc1ccncc1N
Result: 532.7

Query: Give reported Osmolality value for COC(=O)[C@@H](N)Cc1ccc(O)c(O)c1
Result: 605.7
